Listed next: entries and their corresponding log10(Cmax).
experiment: Oral Bioavailability was measured as Maximal observed concentration (Cmax) value at dose 125 mg/kg; format: ADME, organism-based; design: dose 125 mg/kg, route oral; details: in vivo
# values: log10(Cmax), units nM

Data request: Please give the documented log10(Cmax) of COc1ccc(CN[C@@H](C(=O)NC2c3ccccc3C[C@H]2O)[C@H](O)[C@H](Cc2ccccc2)NC(=O)[C@@H](NC(=O)CSc2nnc(C)s2)C(C)(C)C)cc1 (stereo partly specified)
Data returned: 4.30

Data request: Note down log10(Cmax) recorded for COc1ccc(CN[C@@H](C(=O)NC2c3ccccc3C[C@H]2O)[C@H](O)[C@H](Cc2ccccc2)NC(=O)[C@@H](NC(=O)CSc2nncn2C)C(C)(C)C)cc1 (stereo partly specified)
Data returned: 2.85

====

test: Solubility (phosphate-buffered saline, pH =7.4); type: physicochemical; details: read-out: S
# label = true if solubility >= 30 µM else false

Below, 4 molecules whose answers are already recorded.
{"MOLECULE": "COc1ccc(CN[C@@H](C(=O)NC(C(=O)NCc2nc3ccccc3[nH]2)C(C)C)[C@H](O)[C@H](Cc2ccccc2)NC(=O)OC(C)(C)C)cc1 (some centres not stated)", "ANSWER_LABEL": "false"}
{"MOLECULE": "CC(C)(C)[C@H](NC(=O)OCc1ccccc1)C(=O)N[C@@H](Cc1ccccc1)[C@@H](O)[C@@H](NCc1ccc(CNC(=O)OCc2ccccc2)cc1)C(=O)N[C@H]1c2ccccc2C[C@H]1O", "ANSWER_LABEL": "false"}
{"MOLECULE": "COc1ccc(CN[C@@H](C(=O)N[C@H]2c3ccccc3CC2O)[C@H](O)[C@H](Cc2ccccc2)NC(=O)[C@@H](NC(=O)OCc2ccccc2)C(C)C)cc1 (some centres not stated)", "ANSWER_LABEL": "false"}
{"MOLECULE": "CC(C)(C)[C@H](NC(=O)OCc1ccccc1)C(=O)N[C@@H](Cc1ccccc1)[C@@H](O)[C@@H](NCc1ccc(OCCO)cc1)C(=O)N[C@H]1c2ccccc2C[C@H]1O", "ANSWER_LABEL": "false"}

# input for lookup
Data request: Textbook exercise: given the entry `COc1ccc(CN[C@@H](C(=O)N[C@H]2c3ccccc3C[C@H]2O)[C@H](O)[C@H](Cc2ccccc2)NC(=O)[C@@H](NC(=O)OCc2ccccc2)C(C)(C)C)cc1` , state whether its solubility is greater than or equal to 30 µM.
Data returned: false

====

Examples of molecules with documented pKi follow.
molecular target: Human immunodeficiency virus type 1 protease (Human immunodeficiency virus 1, UniProt Q72874); test: Binding affinity against HIV-1 protease
Please treat pKi as minus the base-10 logarithm of the molar concentration.

Before answering, review these 3 worked examples.
{"MOLECULE": "CCOc1ccc(CN[C@@H](C(=O)N[C@@H]2c3ccccc3C[C@H]2O)[C@H](O)[C@H](Cc2ccccc2)NC(=O)OC(C)(C)C)cc1", "pKi": 7.04}
{"MOLECULE": "COc1ccc(CN[C@@H](C(=O)N[C@@H]2c3ccccc3C[C@H]2O)[C@H](O)[C@H](Cc2ccccc2)NC(=O)C(CC(=O)O)NC(=O)OCc2ccccc2)cc1 (some centres undefined)", "pKi": 7.66}
{"MOLECULE": "COc1ccc(CN[C@@H](C(=O)N[C@H]2c3ccccc3C[C@H]2O)[C@H](O)[C@H](Cc2ccccc2)NC(=O)[C@@H](NC(=O)CCc2nc3ccccc3[nH]2)C(C)(C)C)cc1", "pKi": 8.03}

Data request: Specify pKi for COc1ccc(CN[C@@H](C(=O)NC2c3ccccc3C[C@H]2O)[C@H](O)[C@H](Cc2ccccc2)NC(=O)[C@@H](NC(=O)CSc2nnn(C)n2)C(C)(C)C)cc1 (some centres undefined) and stop.
Data returned: 7.92

Data request: Give the reported pKi for this molecule. COc1ccc(CN[C@@H](C(=O)NC(C(=O)NCc2nc3ccccc3[nH]2)c2ccccc2)[C@H](O)[C@H](Cc2ccccc2)NC(=O)OC(C)(C)C)cc1 (some centres undefined)
Data returned: 7.96

Data request: Supply recorded pKi for COc1ccc(CN[C@@H](C(=O)NC2c3ccccc3C[C@H]2O)[C@H](O)[C@H](Cc2ccccc2)NC(=O)[C@@H](NC(=O)/C=C/c2ccc(OC)c(O)c2)C(C)(C)C)cc1 (some centres undefined) here.
Data returned: 8.24

Data request: Annotate the molecule COc1ccc(CN[C@@H](C(=O)NC2c3ccccc3C[C@H]2O)[C@H](O)[C@H](Cc2ccccc2)NC(=O)[C@@H](NC(=O)CSc2nnc(C)s2)C(C)(C)C)cc1 (some centres undefined) with its measured pKi.
Data returned: 8.10

Data request: Look up pKi of `COc1ccc(CN[C@@H](C(=O)N[C@H]2c3ccccc3C[C@H]2O)[C@H](O)[C@H](Cc2ccccc2)NC(=O)[C@@H](NC(=O)OCc2ccccc2)C(C)(C)C)cc1` and report it.
Data returned: 8.02

Data request: Give reported pKi value for COc1ccc(CN[C@@H](C(=O)NC(C(=O)NCc2nc3ccccc3[nH]2)C(C)C)[C@H](O)[C@H](Cc2ccccc2)NC(=O)OC(C)(C)C)cc1 (some centres undefined)
Data returned: 8.11

Taken from ChEMBL document CHEMBL1129316.
